System: T1, corticotropin releasing factor 2 receptor; note: reference of the scale not given here
T1 sequence (Q13324 whole entry, species assumed, looked up): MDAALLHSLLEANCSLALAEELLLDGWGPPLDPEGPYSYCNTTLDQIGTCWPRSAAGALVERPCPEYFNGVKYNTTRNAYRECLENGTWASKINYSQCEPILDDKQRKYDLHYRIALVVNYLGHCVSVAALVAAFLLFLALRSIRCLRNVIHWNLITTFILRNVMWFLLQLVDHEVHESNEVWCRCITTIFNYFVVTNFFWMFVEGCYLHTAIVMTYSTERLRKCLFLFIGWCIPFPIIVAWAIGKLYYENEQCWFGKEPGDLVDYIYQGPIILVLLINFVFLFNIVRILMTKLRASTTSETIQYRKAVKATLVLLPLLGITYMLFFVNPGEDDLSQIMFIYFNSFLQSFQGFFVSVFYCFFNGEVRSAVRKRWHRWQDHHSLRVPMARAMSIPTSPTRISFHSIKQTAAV
Experimental protocol: cell-based or functional assay
Ends that are not written are not given here.
Reported CRF2R Emax values for the following binders.

- Binder: "IVLSLDVPIGLLQILLEQAKQEAAREQATTNARILARV-NH2 [SEQ ID NO 124]"
  CRF2R Emax / %: 94
- Binder: "ZGPPISIDLPKYLLRKMIEIEKQEKEKQQAANNRLLLDTI (C-terminal amide) [SEQ ID NO 58]"
  CRF2R Emax / %: 100
- Binder: "ZGPPISIDLPIHLLRKMIEIEKQEKEKQQAANNRLLLDTI (C-terminal amide) [SEQ ID NO 77]"
  CRF2R Emax / %: 100
